Each item that follows carries a reported IC50.
target-system: GABA-A receptor; anion channel
method-summary: Binding affinity to picrotoxin site of the Gamma-aminobutyric acid receptor was measured using [35S]TBPS as radioligand
Format: protein-complex assay
Write the answer as a number in µM, unit excluded.

Solved cases (7 shown):
compound	unit-info	IC50
CC(C)C1(C(C)C)CCSC1=O	µM	74
CC(C)(C)C1CCSC1=O (centres undefined)	µM	190
CCC1(CC)CCSC1=O	µM	260
CC(C)C1CCOC1=O (centres undefined)	µM	2000
CC1(C)CCSC1=O	µM	920
CC(C)C1COC(=O)C1 (centres undefined)	µM	42000
CCC1CCSC1=O (centres undefined)	µM	1500

query: Entry CC(C)C1(C(C)C)CCOC1=O has what IC50?
result: 220
